Target: bovine synapsin I (Bos taurus)
Test: ATP-γ35S binding competition assay on purified synapsin I
TEST READOUT: pIC50
API: returns pIC50 as number; meaning -log10 of concentration in mol/L.

Ask: For the compound O=c1c(O)c(-c2ccc(O)c(O)c2)oc2cc(O)c(O)c(O)c12 [quercetagetin] , what pIC50 is on record?
Reply: 6.82

====

Measured maximal inhibition of ATP-γ35S binding to synapsin I values are reported for all entries that follow.
Target: bovine synapsin I (Bos taurus, UniProt P17599)
Assay: ATP-γ35S binding competition assay on purified synapsin I
Settings: ATP-γ35S 0.2 µM, purified bovine synapsin I 0.5 µM, from curve fitting (lower plateau)

O=c1c(O)c(-c2ccc(O)c(O)c2)oc2cc(O)c(O)c(O)c12 : 88.3±4.9%
Nc1ncnc2c1ncn2[C@@H]1O[C@H](COP(=O)(O)OP(=O)(O)OP(=O)(O)O)[C@@H](O)[C@H]1O : 95.8±2.2%

Ask: For the molecule CN[C@@H]1C[C@H]2O[C@@](C)([C@@H]1OC)n1c3ccccc3c3c4c(c5c6ccccc6n2c5c31)C(=O)NC4 , what maximal inhibition of ATP-γ35S binding to synapsin I is on record?
Reply: 84.3±1.2%

These measurements were taken from paper PMC2922380.
